targetOrTestSystem: UniProt Q924X8
Sequence (Q924X8 as listed by the source): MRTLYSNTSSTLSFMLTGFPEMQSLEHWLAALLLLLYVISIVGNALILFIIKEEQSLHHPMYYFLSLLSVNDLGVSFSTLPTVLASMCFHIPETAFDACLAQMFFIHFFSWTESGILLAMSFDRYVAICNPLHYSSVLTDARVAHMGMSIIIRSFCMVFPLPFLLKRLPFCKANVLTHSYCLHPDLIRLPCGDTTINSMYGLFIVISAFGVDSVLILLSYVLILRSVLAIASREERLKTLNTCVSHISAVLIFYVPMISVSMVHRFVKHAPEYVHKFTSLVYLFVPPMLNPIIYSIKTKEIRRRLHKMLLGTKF
protocolConditions: stereoisomer not certain
reportedMetric: odorant receptor agonist call

Examples from the recorded data:
{"sampleSmiles": "CCCCCCO", "odorant receptor agonist call": "inactive"}
{"sampleSmiles": "O=C([O-])CCCCCCC(=O)[O-].[H+].[H+]", "odorant receptor agonist call": "active"}
{"sampleSmiles": "CCCCCCCCCO", "odorant receptor agonist call": "inactive"}
{"sampleSmiles": "O=C([O-])CCCCC(=O)[O-].[H+].[H+]", "odorant receptor agonist call": "active"}
{"sampleSmiles": "CCCCCCCC(=O)[O-].[H+]", "odorant receptor agonist call": "inactive"}
{"sampleSmiles": "CCCCCCCCO", "odorant receptor agonist call": "inactive"}

For UniProt Q924X8, provide odorant receptor agonist call of `O=C(O)CCCBr` please.
active

Follow-up item: `O=C(O)CCCCBr`
active

---

targetOrTestSystem: UniProt Q8VGV1
Sequence (Q8VGV1 as listed by the source): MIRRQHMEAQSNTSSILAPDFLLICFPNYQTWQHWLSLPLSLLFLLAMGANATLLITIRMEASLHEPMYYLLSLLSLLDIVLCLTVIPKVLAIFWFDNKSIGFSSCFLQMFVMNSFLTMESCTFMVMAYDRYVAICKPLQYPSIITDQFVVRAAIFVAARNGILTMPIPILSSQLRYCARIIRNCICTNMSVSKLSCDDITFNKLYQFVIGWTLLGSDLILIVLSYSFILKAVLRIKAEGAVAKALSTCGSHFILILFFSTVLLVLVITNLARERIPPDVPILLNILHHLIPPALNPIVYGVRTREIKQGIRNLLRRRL
protocolConditions: stereoisomer not certain
Answer with one of the outcomes given here: active, inactive

I'd appreciate the recorded outcome for `CCCCCCOC(C)=O` from this test.
inactive

Follow-up item: `CCCCCCCCCCO`
inactive

Follow-up item: `CCCCCCO`
inactive

Follow-up item: `C=CCOC(=O)CCCCCC`
inactive

Follow-up item: `O=C(c1ccccc1)c1ccccc1`
inactive

Follow-up item: `O=C1Cc2ccccc2O1`
inactive

Follow-up item: `CCCCCC=O`
inactive

Follow-up item: `CCCCCCCC(C)=O`
inactive

Follow-up item: `CCCCCC1=C(C)CCC1=O`
inactive

Follow-up item: `COc1cc(C(=O)O)ccc1O`
inactive

Follow-up item: `CCCC(C)=O`
inactive

Follow-up item: C=C(C)C1CCC(C)C(=O)C1 (configuration not stated)
inactive

Follow-up item: `CCCC(=O)C(C)=O`
inactive

Follow-up item: CCC(C(=O)O)c1ccccc1 (configuration not stated)
inactive

Follow-up item: `CCCCCCCC(=O)[O-].[H+]`
active

Follow-up item: `O=C1CCOc2ccccc21`
inactive

Follow-up item: `CC(=O)OCc1ccccc1`
inactive

Follow-up item: `CCCCC(=O)O`
inactive

Follow-up item: `CCCCCCCCCO`
inactive

Follow-up item: `CCCCCC(=O)CC`
inactive

Follow-up item: `CCCCCCCCS`
inactive

Follow-up item: `CCCCCCC(C)=O`
inactive

Follow-up item: `c1ccccc1`
inactive

Follow-up item: CCCCOC(=O)C(C)OC(=O)CCC (configuration not stated)
inactive

Follow-up item: `CCCCCO`
inactive

Follow-up item: `O=c1ccc2ccccc2o1`
inactive

Follow-up item: `CCC(=O)O`
inactive

---

targetOrTestSystem: UniProt Q8VG49
Sequence (Q8VG49 as listed by the source): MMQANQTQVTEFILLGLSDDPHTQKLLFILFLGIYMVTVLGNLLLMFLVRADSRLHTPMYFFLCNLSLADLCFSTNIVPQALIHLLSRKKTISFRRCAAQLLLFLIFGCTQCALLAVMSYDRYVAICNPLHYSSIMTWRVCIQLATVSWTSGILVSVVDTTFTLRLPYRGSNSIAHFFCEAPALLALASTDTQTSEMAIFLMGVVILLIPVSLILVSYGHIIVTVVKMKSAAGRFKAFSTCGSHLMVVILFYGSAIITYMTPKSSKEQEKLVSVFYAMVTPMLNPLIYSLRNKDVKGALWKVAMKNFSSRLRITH
protocolConditions: stereoisomer not certain
Answer with one of the outcomes given here: true (1) for active, false (0) for inactive

I'd appreciate the recorded outcome for `CCCCCCCO` from this test.
false (0)

Follow-up item: `O=C1Cc2ccccc2O1`
false (0)

Follow-up item: `CCCCC(=O)CC`
false (0)

Follow-up item: `CCCC(=O)C(C)=O`
false (0)

Follow-up item: `C=CCOC(=O)CCCCCC`
false (0)

Follow-up item: `CCCCOC=O`
false (0)

Follow-up item: `CCCCCCC(C)=O`
false (0)

Follow-up item: `CCCCCCCC(C)=O`
false (0)

Follow-up item: `CCCCCCOC(C)=O`
false (0)

Follow-up item: `O=C(c1ccccc1)c1ccccc1`
false (0)

Follow-up item: `CCCCC(C)=O`
false (0)

Follow-up item: `CCCCCCCC(=O)[O-].[H+]`
false (0)

Follow-up item: `CCCCCCCCCC(=O)[O-].[H+]`
true (1)

Follow-up item: `CCC(=O)O`
false (0)

Follow-up item: `CCCCCCC(=O)[O-].[H+]`
false (0)

Follow-up item: `CCCCCOC(=O)CCCCC`
false (0)

Follow-up item: `CCCCCCCCO`
false (0)

Follow-up item: `CCCCCCCCCS`
true (1)

Follow-up item: `CC(=O)Oc1ccccc1`
false (0)

Follow-up item: `CCCCCCO`
false (0)

Follow-up item: `CCC(=O)C(=O)CC`
false (0)

Follow-up item: `CCCCCCCCC(=O)O`
true (1)

Follow-up item: `CCCCCCCCCCO`
false (0)

Follow-up item: `O=C1CCOc2ccccc21`
false (0)

Follow-up item: `CCCCCCCCCO`
false (0)

Follow-up item: `CCCCCC(=O)CC`
false (0)

Follow-up item: `CCCCCC1=C(C)CCC1=O`
false (0)

Follow-up item: CC(C)=CCCC(C)CCO (stereo not drawn)
false (0)
